Data origin, for the record: ChEMBL document CHEMBL1201862

- Tested on: SK-OV-3
- experimental-protocol: NCI tumour cell line growth inhibition, 48 h
The source made the active and inactive calls. Rule as the data show it: active = GI50 up to about 1.1 µM and inactive = higher.
List of GI50 values.

Recorded results for 5 compounds are shown here.
{"compound-smiles": "CN(C(=O)Cc1cccc(N=C=S)c1)[C@H]1CCCC[C@@H]1N1CCCC1", "GI50": "25.5 µM (inactive)"}
{"compound-smiles": "CCOC(=O)Cc1csc(Nc2ccccc2[N+](=O)[O-])n1", "GI50": "> 100 µM (inactive)"}
{"compound-smiles": "CCON1CC(C(=O)OC)=C(O)C1=O", "GI50": "> 100 µM (inactive)"}
{"compound-smiles": "COc1cc(C(=O)N(C(=S)OCc2ccccn2)c2ccccc2)cc(OC)c1OC", "GI50": "> 100 µM (inactive)"}
{"compound-smiles": "CN(CCCN1C(=O)c2cccc3cc([N+](=O)[O-])cc(c23)C1=O)CCN(C)CCCN1C(=O)c2cccc3cc([N+](=O)[O-])cc(c23)C1=O", "GI50": "> 39.3 µM (inactive)"}

Attention now shifts to the item below.
// query GI50 value for entry O=C(Nc1cccc2cnccc12)c1cc2c(cc1Cl)Sc1nccn1S2(=O)=O 40 µM (inactive)
